- Test system: Human immunodeficiency virus 1
- ASSAY_PROCEDURE: Antiviral activity against HIV1 LAI infected in human MT2 cells by MTT assay
- Type: functional, organism-based
- CONDITION_INFO: Human immunodeficiency virus 1, M:B_Lai
Reported pIC50 values for the following compounds.
Scale: negative log10 of molar concentration, which is what pIC50 denotes.

The following compounds have reported results that may help.
In [3]: df
Out[3]:
                      smiles_representation                          system  measurement
0  COc1ccc2c(c1)OCCCCCCCCCCN(C[C@@H](O)[C@H](Cc1ccccc1)NC(=O)O[C@H]1CO[C@H]3OCC[C@H]31)S2(=O)=O  Human immunodeficiency virus 1         6.50
1  COc1ccc2c(c1)OCCC/C=C\CC[C@H](C)CN(C[C@@H](O)[C@H](Cc1ccccc1)NC(=O)O[C@H]1CO[C@H]3OCC[C@H]31)S2(=O)=O  Human immunodeficiency virus 1         8.05
2  COc1ccc2c(c1)OCC/C=C\CN(C[C@@H](O)[C@H](Cc1ccccc1)NC(=O)O[C@H]1CO[C@H]3OCC[C@H]31)S2(=O)=O  Human immunodeficiency virus 1         7.82
3  C=CCCCOc1cc(OC)ccc1S(=O)(=O)N(CC=C)C[C@@H](O)[C@H](Cc1ccccc1)NC(=O)O[C@H]1CO[C@H]2OCC[C@H]21  Human immunodeficiency virus 1         6.54

Proceed to the following item.
Specify measured pIC50 for COc1ccc2c(c1)OCCC/C=C\CC[C@@H](C)CN(C[C@@H](O)[C@H](Cc1ccccc1)NC(=O)O[C@H]1CO[C@H]3OCC[C@H]31)S2(=O)=O .
6.70

====

- SYSTEM: Protease (Human immunodeficiency virus 1)
- Sequence (Q9YQ12 whole entry): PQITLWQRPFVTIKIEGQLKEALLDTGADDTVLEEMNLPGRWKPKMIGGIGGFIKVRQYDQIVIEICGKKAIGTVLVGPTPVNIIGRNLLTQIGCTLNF
RESULT_TYPE: Ki
Just the number plus its unit, please.

The following molecules have reported results that may help.
                      smiles_representation  measurement
0  COc1ccc2c(c1)OCCCCCCCCCN(C[C@@H](O)[C@H](Cc1ccccc1)NC(=O)O[C@H]1CO[C@H]3OCC[C@H]31)S2(=O)=O       670 pM
1  COc1ccc2c(c1)OCCC/C=C\CC[C@H](C)CN(C[C@@H](O)[C@H](Cc1ccccc1)NC(=O)O[C@H]1CO[C@H]3OCC[C@H]31)S2(=O)=O       310 pM

State Ki (Protease (Human immunodeficiency virus 1)) of COc1ccc2c(c1)OCCCCCCCCN(C[C@@H](O)[C@H](Cc1ccccc1)NC(=O)O[C@H]1CO[C@H]3OCC[C@H]31)S2(=O)=O .
470 pM

====

Please consider the recorded Ki for Protease (Human immunodeficiency virus 1) in what follows.
Quick reminder: number only, in nM, skip the unit.

The following compounds have reported results that may help.
In [3]: df
Out[3]:
                      smiles_representation                                    system  result_type  measurement
0  C=CCCCOc1cc(OC)ccc1S(=O)(=O)N(CC=C)C[C@@H](O)[C@H](Cc1ccccc1)NC(=O)O[C@H]1CO[C@H]2OCC[C@H]21  Protease (Human immunodeficiency virus 1)           Ki         1.02
1  C=CCCOc1cc(OC)ccc1S(=O)(=O)N(CC=C)C[C@@H](O)[C@H](Cc1ccccc1)NC(=O)O[C@H]1CO[C@H]2OCC[C@H]21  Protease (Human immunodeficiency virus 1)           Ki         0.63
2  COc1ccc2c(c1)OCCCCCN(C[C@@H](O)[C@H](Cc1ccccc1)NC(=O)O[C@H]1CO[C@H]3OCC[C@H]31)S2(=O)=O  Protease (Human immunodeficiency virus 1)           Ki         0.09

Proceed to the following item.
Specify measured Ki for C=CCOc1cc(OC)ccc1S(=O)(=O)N(CC=C)C[C@@H](O)[C@H](Cc1ccccc1)NC(=O)O[C@H]1CO[C@H]2OCC[C@H]21 .
0.1
